The measurements presented in this section are drawn from ChEMBL document CHEMBL4422611.

Tested on: Plasmodium falciparum
assayInfo: Antimalarial activity against synchronized ring stage of Plasmodium falciparum infected in human RBC measured after 48 hrs
Type: functional, organism-based
quantity: IC50 (µg/mL)

a: CCOC(=O)C1=C(N)Oc2c(ccc(O)c2C)C1c1c(C)nn(-c2ccccc2)c1-n1ccnc1 (centres undefined)
b: Cc1nn(-c2ccccc2)c(-n2ccnc2)c1C1C(C#N)=C(N)Oc2c1ccc1ccccc21 (centres undefined)
// compare measured IC50 between a and b ; output the lower one Your answer should be the label attached to the chosen record. a

1: Cc1nn(-c2ccccc2)c(-n2ccnc2)c1C1CC(c2ccc(Br)cc2)=NN1 (centres undefined)
2: Cc1n[nH]c2c1C(c1c(C)nn(-c3ccccc3)c1-n1ccnc1)C(C#N)=C(N)O2 (centres undefined)
Exercise: compare 1 and 2 ; which one has the greater IC50? Your answer should be the label attached to the chosen record. 2
(2: 0.57 µg/mL, 1: 0.012 µg/mL)

P: Cc1nn(-c2ccccc2)c(-n2ccnc2)c1C1CC(c2ccc(O)cc2)=NN1 (centres undefined)
Q: CCOC(=O)C1=C(N)OC2=C(C(=O)CC(C)(C)C2)C1c1c(C)nn(-c2ccccc2)c1-n1ccnc1 (centres undefined)
// compare measured IC50 between P and Q ; output the lower one Your answer should be the label attached to the chosen record. P
(P: 0.036 µg/mL, Q: 0.067 µg/mL)
